Reported pEC50 values follow for various binders
experimental.target: T1, cyno CD3 (cyno (cynomolgus monkey), UniProt Q95LI5 22-198)
T1 construct: whole, on cells; also called CD3 on Cynomolgus T-cells
T1 sequence (Q95LI5 22-198): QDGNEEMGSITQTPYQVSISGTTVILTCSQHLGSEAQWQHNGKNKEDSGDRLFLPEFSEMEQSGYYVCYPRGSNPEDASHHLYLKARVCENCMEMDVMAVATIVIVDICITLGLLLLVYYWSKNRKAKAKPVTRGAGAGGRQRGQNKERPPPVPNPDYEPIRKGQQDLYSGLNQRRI
method.summary: cell binding, cyno CD3 (activated cyno PBMC); cyno CD3 (second number of the cell)
API: returns pEC50 as number; meaning -log10 of concentration in mol/L.

For orientation, consider the following solved cases.
binder	endpoint.value
Fab1-HK129-Folate (Fab, V domains shown, pAF at HK129 (Kabat) conjugated to folate (oxime), From E. coli; also called Folate lead; parent control) VH: EVQLVESGGGLVQPGGSLRLSCAASGFTFNTYAMNWVRQAPGKGLEWVARIRSKYNNYATYYADSVKDRFTISRDDSKNILYLQMNSLKTEDTAVYYCVRHGNFGNSYVSWFAYWGQGTLVTVSS VL: QAVVTQEPSLTVSPGGTVTLTCRSSTGAVTTSNYANWVQQKPGQAPRGLIGGTNKRAPGTPARFSGSLLGGKAALTLSGAQPEDEAEYYCALWYSNLWVFGGGTKLTVLG	8.48
Fab7-HK129-Folate (Fab, V domains shown, pAF at HK129 (Kabat) conjugated to folate (oxime), also called Fab7 (E. coli, folate-conjugated)) VH: EVQLVESGGGLVQPGGSLRLSCAASGFTFNTYAMNWVRQAPGKGLEWVARIRSKYNNYATYYADSVKDRFTISRDDSKNILYLQMNSLKTEDTAVYYCARHGNFGNSYVSWFAYWGQGTLVTVSS VL: QAVVTQEPSLTVSPGGTVTLTCRSSTGAVTTSNYANWVQQKPGQAPRGLIGGTNKRAPWVPARFSGSLLGGKAALTLSGAQPEDEAEYYCALWYSNLWVFGGGTKLTVLG	7.69
Fab8-HK129-Folate (Fab, V domains shown, pAF at HK129 (Kabat) conjugated to folate (oxime), also called Fab8 (E. coli, folate-conjugated)) VH: EVQLVESGGGLVQPGGSLRLSCAASGFTFNTYAMNWVRQAPGKGLEWVGRIRSKYNNYATYYADSVKDRFTISRDDSKNILYLQMNSLKTEDTAVYYCVRHGNFGNSYVSWFAYWGQGTLVTVSS VL: QAVVTQEPSLTVSPGGTVTLTCRSSTGAVTTSNYANWFQQKPGQAPRGLIGGTNKRAPGVPARFSGSLLGGKAALTLSGAQPEDEAEYYCALWYSNLWVFGGGTKLTVLG	6.89

Let's switch to this binder now.
Asked: pEC50 lookup needed for Fab10-HK129-Folate (Fab, V domains shown, pAF at HK129 (Kabat) conjugated to folate (oxime), also called Fab10 (E. coli, folate-conjugated)) VH: EVQLVESGGGLVQPGGSLRLSCAASGFTFSTYAMNWVRQAPGKGLEWVARIRSKYNNYATYYADSVKDRFTISRDDSKNILYLQMNSLKTEDTAVYYCVRHGNFGNSYVSWFAYWGQGTLVTVSS VL: QAVVTQEPSLTVSPGGTVTLTCRSSTGAVTTSNYANWFQQKPGQAPRGLIGGTNKRAPGVPARFSGSLLGGKAALTLSGAQPEDEAEYYCALWYSNLWVFGGGTKLTVLG , thanks.
Given back: 7.00
